Origin of measurements: a melting point compilation (Tetko et al.; mined from patent text by program, amines drawn as free bases though some values may be those of a salt)

Property label: melting point

> print(dat)
                                    compound  recorded.measurement
 1  NC(=O)c1sc2ncnc(-c3cc4c(c(OCc5ccccc5)c3)CCO4)c2c1N                239 °C
 2                    Nc1ccc(C2CC2)cc1C(=O)O                158 °C
 3              O=CNNc1ccccc1NC(=S)Nc1ccccc1         224 to 226 °C
 4  CCCCCCCCCCCCc1ccc(S(=O)(=O)Nc2nnc(CO)s2)cc1         138 to 139 °C
 5  CNC(=O)c1cc(-c2ccc(OC)c(Cl)c2)nn(CC(C)C)c1=O         182 to 184 °C
 6                  COC(=O)c1cc2ccc(Br)cc2s1         108 to 110 °C
 7  CCCCCCCCCCCCCCOc1cc(OCCCOc2ccc(OCc3ccccc3)cc2)cc(C(=O)O)c1           77 to 79 °C
 8  COc1cc2nc(N3CCN(c4nc5ncccc5o4)CC3)nc(N)c2cc1OC              > 250 °C
 9  O=C(c1ccccc1)N1CCc2[nH]c3cccc(CCCOc4ccccc4)c3c2CC1         121 to 124 °C
10  O=C(C=Cc1ccc2c(c1)OCO2)c1cccc(OCCCCBr)c1           97 to 98 °C
11      COc1ccc(OC)c(NC(=O)c2cc(OC)ccc2OC)c1         121 to 123 °C
12         Nc1cnc2c(c1)[nH]c(=O)n2-c1ccccc1F         220 to 221 °C
13        CCN(CC)C(=O)c1ccc2cc(C(=O)O)ccc2c1         122 to 124 °C
14             NC(=O)c1cnn2c(=O)n(CCCl)nnc12         193 to 194 °C
15  O=C1N(Cc2ccc(Br)cn2)c2ccccc2C12COc1cc3c(cc12)OCCO3 (centres undefined)         201 to 202 °C
16          CCNC(=O)N(C)C1c2ccccc2Oc2ccccc21         139 to 141 °C
17             Nc1cc(=O)n(Cc2cccc(I)c2)[nH]1                186 °C
18                 O=C1NC2(CCCC2)CCCC1(Cl)Cl         114 to 120 °C
19                Nc1cc(F)c(-c2cccnc2)c(F)c1         141 to 142 °C
20   COc1cc(NCCCCCC(=O)NCC(C)C)c2nccc(C)c2c1         111 to 112 °C
21                CC(=N)NCCCCCCCCCCCCNC(C)=N           92 to 97 °C
22  COS(=O)(=O)Cc1cccc(-c2nc(=O)c3ccccc3s2)n1                102 °C
23  Nc1c(I)c(C(F)(F)F)nn1-c1c(Cl)cc(C(F)(F)F)cc1Cl                126 °C
24   Cc1sc(N2C(=O)OCC2(C)C)nc1-c1ccc(C#N)cc1         192 to 193 °C
25  CCCc1c(Oc2ccc(C(=O)O)cc2C(=O)O)ccc(C(C)=O)c1O         280 to 283 °C
26  N#CN1CCC2(CC1)Oc1ccccc1C2n1cccc1 (centres undefined)         165 to 168 °C
27  Cc1ccc(O)c2c1C(C(=O)N(Cc1ccc(N(C)C)cc1)c1ccc(C(C)C)cc1)CCC2 (centres undefined)                190 °C
28               COC(=O)ON1C(=O)c2ccccc2C1=O         129 to 135 °C
29    CCOC(=O)C=Cc1ccc(OCC)c([N+](=O)[O-])c1           90 to 92 °C
